# Test target: Polyunsaturated fatty acid 5-lipoxygenase (Homo sapiens, UniProt P09917)
# Sequence (P09917 whole entry): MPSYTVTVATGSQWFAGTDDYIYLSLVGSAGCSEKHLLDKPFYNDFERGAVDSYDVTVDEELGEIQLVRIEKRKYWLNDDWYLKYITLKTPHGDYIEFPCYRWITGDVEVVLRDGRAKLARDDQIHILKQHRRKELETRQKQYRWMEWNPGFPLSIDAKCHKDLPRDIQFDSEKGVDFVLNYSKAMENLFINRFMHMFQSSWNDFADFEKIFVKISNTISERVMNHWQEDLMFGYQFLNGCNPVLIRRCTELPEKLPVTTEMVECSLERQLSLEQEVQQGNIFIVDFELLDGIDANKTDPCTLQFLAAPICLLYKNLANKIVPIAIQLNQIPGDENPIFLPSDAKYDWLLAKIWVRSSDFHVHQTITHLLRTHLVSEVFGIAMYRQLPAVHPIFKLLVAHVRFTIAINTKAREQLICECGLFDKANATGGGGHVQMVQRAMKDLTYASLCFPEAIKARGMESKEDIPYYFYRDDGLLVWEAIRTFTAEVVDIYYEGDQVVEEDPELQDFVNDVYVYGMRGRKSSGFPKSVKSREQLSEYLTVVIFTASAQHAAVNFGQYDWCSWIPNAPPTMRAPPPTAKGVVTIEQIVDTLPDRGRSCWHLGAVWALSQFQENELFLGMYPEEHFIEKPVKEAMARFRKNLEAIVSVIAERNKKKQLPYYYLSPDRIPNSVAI
# Procedure details: Inhibition of 5-LOX in human neutrophils assessed as reduction in 5-HETE formation preincubated for 5 mins followed by arachidonic acid and A23187 addition and measured after 5 mins by RP-HPLC analysis
Measurement kind: IC50 (µM)

• COc1cc(/C=C/C(=O)CCCCc2ccccc2)ccc1O = 4
• COc1cc(CCC(=O)CCCCc2ccccc2)ccc1O = 5.4

---

# Test system: RAW264.7
# Procedure details: Antiinflammatory activity in mouse RAW264.7 cells assessed as inhibition of LPS-induced TNFalpha level preincubated for 1 hrs followed by LPS stimulation and measured after 24 hrs by ELISA
# Type: functional, cell-based
pIC50: −log10 of the molar value.
Measurement kind: pIC50

* COc1ccc(C/C=C/CCCCc2ccc(O)cc2)cc1 | 4.53
* COc1ccc(C/C=C/CCCCc2ccc(O)c(O)c2)cc1 | 4.80

(1) COc1ccc(C/C=C/CCCCc2cccc(O)c2)cc1
(2) COc1ccc(C/C=C/CCCCc2ccc(OC)c(OC)c2)cc1
Inquiry: Select the item with the higher value of pIC50 from the options 1 and 2 listed. Returns: label corresponding to the selected item.
Reply text: 2
